Each recorded value in this set is attributed to PubChem BioAssay (NCI).

# Test system: HCT-116 colon
# assay.name: NCI-60 one-dose screen, 48 h (100 = growth as untreated, 0 = no growth, -100 = all killed)
# conditions: 10 µM unless noted
This is part of a sample that, as a whole, favours compounds with a hit. Of some 83,000 tested, about 20% had one in any assay.
Returns one of TRUE or FALSE; TRUE when growth is >= 80%.

compound=O=C(c1ccc(O)c(Br)c1)c1ccc(O)c(Br)c1 class_name=TRUE
compound=CCCOC(=O)c1nc(N(CC2CCCCC2)C(=O)NC)sc1/N=C/c1ccccc1 class_name=FALSE
compound=Cc1ccc(/C=C2\CNC/C(=C\c3ccc(C)cc3)C2=O)cc1 class_name=FALSE
compound=O=C(CBr)c1ccc(OC(=O)c2ccccc2)cc1 class_name=FALSE
compound=CCCCCCCCCCCCN1C(C)=CS/C1=C\C=C\c1scc(C)[n+]1CCCCCCCCCCCC class_name=FALSE
compound=COc1cc(/C=C/C(=O)CC(=O)/C=C/c2ccc(O)c(OC)c2)ccc1O class_name=FALSE
compound=O=[N+]([O-])/C(=C/c1ccccc1)c1ccccc1 class_name=TRUE
compound="CCC[CH2][Sn]1([CH2]CCC)[O]C2C(CO)OC(n3ccc(N)nc3=O)C2[O]1 (stereo not drawn)" class_name=FALSE

====

# Tested on: HCT-116 colon
# assay.name: NCI-60 one-dose screen, 48 h (100 = growth as untreated, 0 = no growth, -100 = all killed)
# conditions: 10 µM unless noted
This is part of a sample that, as a whole, favours compounds with a hit. Of some 83,000 tested, about 20% had one in any assay.
Recorded growth values for a group of compounds are listed next.
reported.metric: growth (%)

compound=COc1ccc(/C=C2/C(=O)ON=C2C)cc1 observed_measurement=112
compound=O=C(CCl)N1c2ccccc2Sc2c1ccc1ccccc21 observed_measurement=16.4
compound=O=C(Cc1ccccc1)C(F)(F)F observed_measurement=95.5
compound=O=[N+]([O-])c1ccc(Oc2ccccc2Cl)c([N+](=O)[O-])c1 observed_measurement=88.2
compound=COc1ccc2c(c1)c(CC(=O)O)c(C)n2C(=O)c1ccc(Cl)cc1 observed_measurement=95.2
compound=CCCCCCCCCCCCSC(=N)N observed_measurement=-64.2
compound=Cc1cc2cccnc2c2ncccc12 observed_measurement=14
compound=CC[n+]1ccc(Nc2ccc(NC(=O)c3ccc(Nc4cc[n+](CC)c5ccc([N+](=O)[O-])cc45)cc3)cc2)cc1 observed_measurement=65.4
compound="COc1cccc2c1C(=O)c1c(O)c3c(c(O)c1C2=O)C[C@@](O)(C(=O)CO)C[C@@H]3OC1CC(OC(C)=O)C(OC(C)=O)C(C)O1 (some centres undefined)" observed_measurement=-80
compound=Cc1nnc(N/N=C/c2ccc([N+](=O)[O-])o2)[nH]c1=O observed_measurement=9.54
compound=Clc1ccc(-n2ncc3c(NCCCN4CCOCC4)ncnc32)cc1 observed_measurement=94.9
compound=CCCCCCCCCCCCNCCCc1ccccc1 observed_measurement=20.4
compound="CCCCCCCCCCCC1N=C(N)N=C(N)N1c1cccc(Br)c1 (centres undefined)" observed_measurement=-100
compound="Oc1c(Cl)cc(Cl)cc1C=NCC1CCC(CN=Cc2cc(Cl)cc(Cl)c2O)CC1 (centres undefined)" observed_measurement=74.9
compound=N=C(N)Sc1cccc[n+]1[O-] observed_measurement=9.31
compound="CC(=O)c1c(O)c(C)c(O)c2c1OC1=CC(=O)C(C(C)=O)C(=O)C12C (centres undefined)" observed_measurement=94
compound="CCOc1ccc(C(C[N+](=O)[O-])Sc2ccccc2N)cc1 (centres undefined)" observed_measurement=-55.6
compound=CCc1oc2ccccc2c1C(=O)c1cc(Br)c(O)c(Br)c1 observed_measurement=73.5
compound=NC(=S)N/N=C\c1nccc2c(N)cccc12 observed_measurement=19.2
